B1: IQUB (parent)
chain: CRNCINLQNEAQKRESFLKYKCLL

# Variants of: B1
# ASSAY DETAILS: protein stability index of a GFP-peptide fusion (GPS, HEK-293T) (PSI 1-6); higher = more stable;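 also: lentivirally expressed fusions sorted by FACS into six bins by GFP to DsRed ratio, PSI derived from sequencing read proportions per bin multiplied by bin number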
# CONDITION: c terminus: a fixed tail appended
Everything with protein stability index lower than 2 is no (0); everything else, including exactly 2, is yes (1).

Example cases with answers are listed next.
INSERT INTO assay_data (sequence_chain, answer_label) VALUES
  ('CRNCINLQNEAQKRESFLKYKNLL [C22N]', 'no (0)'),
  ('CRNCINLQNEAQKRESFLKYKCHL [L23H]', 'no (0)'),
  ('CTNCINLQNEAQKRESFLKYKCLL [R2T]', 'no (0)'),
  ('CRNCINLQNHAQKRESFLKYKCLL [E10H]', 'yes (1)');

Request: Identify whether the reported protein stability index of the following variant is 2 or greater: CRNCINLWNEAQKRESFLKYKCLL [Q8W]
Response: yes (1)

Request: Same lookup for CRICINLQNEAQKRESFLKYKCLL [N3I] , please.
Response: yes (1)

Request: Next: CRNCINLANEAQKRESFLKYKCLL [Q8A]
Response: no (0)

Request: Lookup CRNCINLQNEMQKRESFLKYKCLL [A11M]
Response: yes (1)

Request: Okay, and CINCINLQNEAQKRESFLKYKCLL [R2I] ?
Response: no (0)
